Recorded measurements of MBC, one per entry
Tested on: Bacillus subtilis
assay.remarks: Bactericidal activity against Bacillus subtilis MTCC 121 assessed as reduction in bacterial survival incubated for 24 hrs followed by transfer of microbial suspension to agar plates and measured at 24 hrs post transfer by agar well diffusion method
Format: functional
condition.summary: MTCC 121, 24 h
measured.attribute: MBC (µg/mL)

smiles_code=COc1ccc(-c2nc3sccn3c2C(=O)c2cn(-c3ccc(C(F)(F)F)cc3)nn2)cc1 readout_units=µg/mL recorded_result=31.2
smiles_code=O=C(c1cn(-c2ccc(Br)cc2)nn1)c1c(-c2ccccc2)nc2sccn12 readout_units=µg/mL recorded_result=7.8
smiles_code=COc1cc(-n2cc(C(=O)c3c(-c4ccc(Cl)cc4)nc4sccn34)nn2)cc(OC)c1OC readout_units=µg/mL recorded_result=7.8
